protocol details: viability loss with induced miR-34 in A549 – imaging, A549 dox-inducible miR-34, nuclei and caspase counts, primary screen (AID 1347080); note: test concentration not given here
measurement conditions: A549 miR-34 inducible, Hoechst nuclei count, 48 h; measured here: relative caspase fold change +Dox/-Dox
value type: fold change

Short answer for `COc1ccccc1N1CCN(CCN2C(=O)c3ccccc3C(C)(C)C2=O)CC1` : fold change was 1.01

Short answer for `CCCCC/C=C/C=C1/C=CC(=O)[C@@H]1C/C=C\CCCC(=O)O` : fold change was 1.85

Short answer for `CN1CCN(c2ccc(OC(F)(F)F)c(Nc3ncc4c(n3)-c3c(c(C(N)=O)nn3CCO)CC4)c2)CC1` : fold change was 0.326

Short answer for `CN(C)CCN1C(=O)c2cccc3cc(N)cc(c23)C1=O` : fold change was 0.74

Short answer for `Cc1cccc(-c2[nH]c(C(C)(C)C)nc2-c2ccc3c(c2)OCO3)n1` : fold change was 0.464

Short answer for `CCCCC[C@](C)(O)/C=C/[C@H]1[C@H](O)CC(=O)[C@@H]1CCCCCCC(=O)O` : fold change was 1.58

Short answer for `O=C(c1cc(Cc2n[nH]c(=O)c3ccccc23)ccc1F)N1CCN(C(=O)C2CC2)CC1` : fold change was 1.53

Short answer for `CS(=O)(=O)NC(=O)CCCCCCCCCC=C(Br)Br` : fold change was 1.19

Short answer for `CCCCC[C@H](O)/C=C/[C@H]1[C@H](O)CC(=O)[C@H]1CCCCCCC(=O)O` : fold change was 0.989

Short answer for `CC(=O)[C@H]1[C@H](C#N)C[C@H]2[C@@H]3CC=C4C[C@@H](O)CC[C@]4(C)[C@H]3CC[C@@]21C` : fold change was 1.04

Short answer for `Cc1ccc(/C=C2\CNC/C(=C\c3ccc(C)cc3)C2=O)cc1` : fold change was 0.964

Short answer for `CCCCCCCCCCCCCCCCCCCCCC(=O)NCCO` : fold change was 0.641

Short answer for `CCCCCCCCCCCCCCCCC(=O)NCCO` : fold change was 0.673

Short answer for `CCCCOc1ccc(C(=O)Nc2ccc(F)cc2F)cc1` : fold change was 0.917

Short answer for `CNC(=O)c1c(F)cccc1Nc1nc(Nc2cc3c(cc2OC)CCN3C(=O)CN(C)C)nc2[nH]ccc12` : fold change was 0.874

Short answer for `CCCCC(C)(C)[C@H](O)/C=C/[C@H]1C=CC(=O)[C@@H]1C/C=C\CCCC(=O)O` : fold change was 1.18

Short answer for `CC/C=C\C/C=C\C/C=C\C/C=C\C/C=C\CCCC(=O)O[C@H](COCCCCCCCCCCCCCCCC)COP(=O)([O-])OCC[N+](C)(C)C` : fold change was 1.31

Short answer for `Cn1ccc2cc(NC(=O)Nc3cccnc3)ccc21` : fold change was 0.852

Short answer for `Cc1cn(-c2cc(NC(=O)c3ccc(C)c(Nc4nccc(-c5cccnc5)n4)c3)cc(C(F)(F)F)c2)cn1` : fold change was 0.941

Short answer for `O=C1C(c2ccccn2)=[N+]([O-])c2ccccc21` : fold change was 0.616
